Tested on: forty-four human cancer cell lines
assay.method.text: Cell proliferation assay (ATPlite, 72 hours) in the 44 cell line Oncolines panel
Assay type: cell-based
experimental.parameters: Homo sapiens, 4-4 cell, read-out: cell panel IC50, J82
endpoint.label: IC50 (µM)
Reply numerically in µM, unit not repeated.

Known IC50 results, listed for orientation:
smiles.str | endpoint.label | quantity.unit | endpoint.result
Cc1ccc(Nc2nccc(N(C)c3ccc4c(C)n(C)nc4c3)n2)cc1S(N)(=O)=O | IC50 | µM | 28.9
COc1cc2c(Nc3ccc(Br)cc3F)ncnc2cc1OCC1CCN(C)CC1 | IC50 | µM | 5.08

What IC50 value was documented for this compound, "CS(=O)(=O)CCNCc1ccc(-c2ccc3ncnc(Nc4ccc(OCc5cccc(F)c5)c(Cl)c4)c3c2)o1" ?
15.5

Given "COc1cc(Nc2c(C#N)cnc3cc(OCCCN4CCN(C)CC4)c(OC)cc23)c(Cl)cc1Cl" , state its recorded IC50.
4.47

Quick one: IC50 of "C[C@@H](Oc1cc(-c2cnn(C3CCNCC3)c2)cnc1N)c1c(Cl)ccc(F)c1Cl" ?
5.23

I am curious: what IC50 value has been reported for "Cc1nc(Nc2ncc(C(=O)Nc3c(C)cccc3Cl)s2)cc(N2CCN(CCO)CC2)n1" ?
2.5

* * *

subject.of.test: panel of more than 300 wild-type and mutant kinases (313 kinase panel) (Homo sapiens, UniProt O60285)
Sequence (O60285 1-661): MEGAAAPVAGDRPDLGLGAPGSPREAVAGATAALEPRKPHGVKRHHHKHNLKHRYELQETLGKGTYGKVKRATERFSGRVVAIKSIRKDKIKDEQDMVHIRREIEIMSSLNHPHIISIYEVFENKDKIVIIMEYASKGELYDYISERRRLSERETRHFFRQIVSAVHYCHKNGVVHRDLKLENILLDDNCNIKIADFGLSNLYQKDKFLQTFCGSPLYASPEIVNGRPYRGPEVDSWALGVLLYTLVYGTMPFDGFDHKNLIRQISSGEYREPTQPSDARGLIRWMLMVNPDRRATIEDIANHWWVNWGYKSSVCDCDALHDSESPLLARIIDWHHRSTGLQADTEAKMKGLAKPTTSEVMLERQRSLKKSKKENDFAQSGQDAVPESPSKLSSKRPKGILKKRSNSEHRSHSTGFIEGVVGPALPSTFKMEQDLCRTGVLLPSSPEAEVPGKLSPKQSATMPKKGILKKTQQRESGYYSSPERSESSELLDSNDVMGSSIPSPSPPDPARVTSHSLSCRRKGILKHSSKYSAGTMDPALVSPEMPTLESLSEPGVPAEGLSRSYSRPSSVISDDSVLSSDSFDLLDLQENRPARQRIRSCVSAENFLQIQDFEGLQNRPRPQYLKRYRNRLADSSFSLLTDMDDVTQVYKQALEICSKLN
assay.method.text: Kinase profiling in a biochemical assay panel (mobility shift assays and ELISA), %-inhibition at 1 μM; selectivity entropy
experimental.parameters: kinase NuaK1; 1 μM
Label criterion met for high-side %-inhibition of NuaK1 (at or above 40%) and criterion not met for low-side %-inhibition of NuaK1 (below it).

Please review the following examples before continuing.
smiles.str | cat
CCCS(=O)(=O)Nc1ccc(F)c(C(=O)c2c[nH]c3ncc(-c4ccc(Cl)cc4)cc23)c1F | criterion not met
N#CC[C@H](C1CCCC1)n1cc(-c2ncnc3[nH]ccc23)cn1 | criterion met
CC(C)(C)c1nc(-c2cccc(NS(=O)(=O)c3c(F)cccc3F)c2F)c(-c2ccnc(N)n2)s1 | criterion not met
CO[C@H]1C[C@@H]2CC[C@@H](C)[C@@](O)(O2)C(=O)C(=O)N2CCCC[C@H]2C(=O)O[C@H]([C@H](C)C[C@@H]2CC[C@@H](OCCO)[C@H](OC)C2)CC(=O)[C@H](C)/C=C(\C)[C@@H](O)[C@@H](OC)C(=O)[C@H](C)C[C@H](C)/C=C/C=C/C=C/1C | criterion not met
COc1cc2c(Nc3ccc(Br)cc3F)ncnc2cc1OCC1CCN(C)CC1 | criterion not met

%-inhibition of NuaK1 >= 40% for "COc1cc(Nc2c(C#N)cnc3cc(OCCCN4CCN(C)CC4)c(OC)cc23)c(Cl)cc1Cl" ?
criterion met

Decide: is the reported value of %-inhibition of NuaK1 for "O=S(=O)(c1cccc2cnccc12)N1CCCNCC1" equal to or greater than 40%?
criterion met

* * *

subject.of.test: panel of more than 300 wild-type and mutant kinases (313 kinase panel) (Homo sapiens)
assay.method.text: Kinase profiling in a biochemical assay panel (mobility shift assays and ELISA), %-inhibition at 1 μM; selectivity entropy
experimental.parameters: kinase RET; 1 μM
endpoint.label: %-inhibition of RET (%)
Your answer is read as %, so omit the unit and give the number.

Record request: %-inhibition of RET value, item "CO[C@H]1C[C@@H]2CC[C@@H](C)[C@@](O)(O2)C(=O)C(=O)N2CCCC[C@H]2C(=O)O[C@H]([C@H](C)C[C@@H]2CC[C@@H](OC(=O)C(C)(CO)CO)[C@H](OC)C2)CC(=O)[C@H](C)/C=C(\C)[C@@H](O)[C@@H](OC)C(=O)[C@H](C)C[C@H](C)/C=C/C=C/C=C/1C"
-3

Which %-inhibition of RET reading was recorded for the molecule "Cc1ccc(C(=O)Nc2ccc(CN3CCN(C)CC3)c(C(F)(F)F)c2)cc1C#Cc1cnc2cccnn12" ?
102

Reported %-inhibition of RET for "CC(=O)Nc1cccc(-n2c(=O)n(C3CC3)c(=O)c3c(Nc4ccc(I)cc4F)n(C)c(=O)c(C)c32)c1" : what is it?
-8

Look at this molecule and give its reported %-inhibition of RET. "O=S(=O)(c1cccc2cnccc12)N1CCCNCC1"
-5

Which %-inhibition of RET reading was recorded for the molecule "CCCS(=O)(=O)Nc1ccc(F)c(C(=O)c2c[nH]c3ncc(-c4ccc(Cl)cc4)cc23)c1F" ?
32

For the molecule "COc1cc(Nc2c(C#N)cnc3cc(OCCCN4CCN(C)CC4)c(OC)cc23)c(Cl)cc1Cl" , what %-inhibition of RET is on record?
95

What value of %-inhibition of RET has been recorded for this entry: "CC(C)(C)c1nc(-c2cccc(NS(=O)(=O)c3c(F)cccc3F)c2F)c(-c2ccnc(N)n2)s1"
49

Query (molecule): "CO[C@H]1C[C@@H]2CC[C@@H](C)[C@@](O)(O2)C(=O)C(=O)N2CCCC[C@H]2C(=O)O[C@H]([C@H](C)C[C@@H]2CC[C@@H](OCCO)[C@H](OC)C2)CC(=O)[C@H](C)/C=C(\C)[C@@H](O)[C@@H](OC)C(=O)[C@H](C)C[C@H](C)/C=C/C=C/C=C/1C" ; field requested: %-inhibition of RET
-4

* * *

System: panel of more than 300 wild-type and mutant kinases (313 kinase panel)
assay.method.text: Kinase profiling in a biochemical assay panel (mobility shift assays and ELISA), %-inhibition at 1 μM; selectivity entropy
experimental.parameters: kinase EGFR(d746-750); compound at 1 μM
endpoint.label: %-inhibition of EGFR(d746-750)
Kindly format the answer as number then unit.

For orientation, consider the following solved cases.
compound | endpoint.label | endpoint.result
CO[C@H]1C[C@@H]2CC[C@@H](C)[C@@](O)(O2)C(=O)C(=O)N2CCCC[C@H]2C(=O)O[C@H]([C@H](C)C[C@@H]2CC[C@@H](OC(=O)C(C)(CO)CO)[C@H](OC)C2)CC(=O)[C@H](C)/C=C(\C)[C@@H](O)[C@@H](OC)C(=O)[C@H](C)C[C@H](C)/C=C/C=C/C=C/1C | %-inhibition of EGFR(d746-750) | -3%
COc1cc2nccc(Oc3ccc(NC(=O)C4(C(=O)Nc5ccc(F)cc5)CC4)cc3)c2cc1OC [cabozantinib] | %-inhibition of EGFR(d746-750) | 51%

Requested read-out: %-inhibition of EGFR(d746-750). Entry: "CO[C@H]1C[C@@H]2CC[C@@H](C)[C@@](O)(O2)C(=O)C(=O)N2CCCC[C@H]2C(=O)O[C@H]([C@H](C)C[C@@H]2CC[C@@H](OCCO)[C@H](OC)C2)CC(=O)[C@H](C)/C=C(\C)[C@@H](O)[C@@H](OC)C(=O)[C@H](C)C[C@H](C)/C=C/C=C/C=C/1C"
-4%

* * *

subject.of.test: panel of more than 300 wild-type and mutant kinases (313 kinase panel) (Homo sapiens, UniProt Q13043)
Sequence (Q13043 whole entry, change not shown): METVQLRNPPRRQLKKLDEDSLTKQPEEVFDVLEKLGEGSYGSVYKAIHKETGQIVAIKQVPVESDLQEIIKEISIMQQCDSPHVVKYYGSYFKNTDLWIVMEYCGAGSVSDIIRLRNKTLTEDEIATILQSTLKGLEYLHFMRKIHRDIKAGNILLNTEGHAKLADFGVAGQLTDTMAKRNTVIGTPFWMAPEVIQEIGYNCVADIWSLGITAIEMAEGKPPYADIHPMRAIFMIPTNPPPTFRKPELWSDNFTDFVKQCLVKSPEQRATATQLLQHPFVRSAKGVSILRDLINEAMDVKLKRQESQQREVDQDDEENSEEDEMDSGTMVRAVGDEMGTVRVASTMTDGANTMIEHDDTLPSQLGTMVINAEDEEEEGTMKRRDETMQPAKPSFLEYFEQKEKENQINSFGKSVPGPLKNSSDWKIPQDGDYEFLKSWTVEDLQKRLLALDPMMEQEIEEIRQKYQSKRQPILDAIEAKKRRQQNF
assay.method.text: Kinase profiling in a biochemical assay panel (mobility shift assays and ELISA), %-inhibition at 1 μM; selectivity entropy
experimental.parameters: kinase MST1; 1 μM
Entries and their %-inhibition of MST1
The reply should be a number in %, with the unit left off.

compound | quantity.unit | %-inhibition of MST1
CC(=O)Nc1cccc(-n2c(=O)n(C3CC3)c(=O)c3c(Nc4ccc(I)cc4F)n(C)c(=O)c(C)c32)c1 [trametinib] | % | -3.74
N#CC[C@H](C1CCCC1)n1cc(-c2ncnc3[nH]ccc23)cn1 [ruxolitinib] | % | 12

Dear colleague, I am looking for the recorded %-inhibition of MST1 of the following compound: C[C@@H](Oc1cc(-c2cnn(C3CCNCC3)c2)cnc1N)c1c(Cl)ccc(F)c1Cl [crizotinib]
83

Which %-inhibition of MST1 is listed for CNC(=O)c1cc(Oc2ccc(NC(=O)Nc3ccc(Cl)c(C(F)(F)F)c3)c(F)c2)ccn1 [regorafenib] ?
-5.39

Entry CO[C@H]1C[C@@H]2CC[C@@H](C)[C@@](O)(O2)C(=O)C(=O)N2CCCC[C@H]2C(=O)O[C@H]([C@H](C)C[C@@H]2CC[C@@H](OCCO)[C@H](OC)C2)CC(=O)[C@H](C)/C=C(\C)[C@@H](O)[C@@H](OC)C(=O)[C@H](C)C[C@H](C)/C=C/C=C/C=C/1C [everolimus] has what %-inhibition of MST1?
-1.86

# query: %-inhibition of MST1 of entry COc1cc2c(Nc3ccc(Br)cc3F)ncnc2cc1OCC1CCN(C)CC1 [vandetanib]
3.16

Source: paper PMC3961306
